Exercise: state measured pKi for each of the compounds provided.
ASSAYED TARGET: vanilloid receptor (VR1) (Homo sapiens (Human))
Sequence (Q8NER1 whole entry): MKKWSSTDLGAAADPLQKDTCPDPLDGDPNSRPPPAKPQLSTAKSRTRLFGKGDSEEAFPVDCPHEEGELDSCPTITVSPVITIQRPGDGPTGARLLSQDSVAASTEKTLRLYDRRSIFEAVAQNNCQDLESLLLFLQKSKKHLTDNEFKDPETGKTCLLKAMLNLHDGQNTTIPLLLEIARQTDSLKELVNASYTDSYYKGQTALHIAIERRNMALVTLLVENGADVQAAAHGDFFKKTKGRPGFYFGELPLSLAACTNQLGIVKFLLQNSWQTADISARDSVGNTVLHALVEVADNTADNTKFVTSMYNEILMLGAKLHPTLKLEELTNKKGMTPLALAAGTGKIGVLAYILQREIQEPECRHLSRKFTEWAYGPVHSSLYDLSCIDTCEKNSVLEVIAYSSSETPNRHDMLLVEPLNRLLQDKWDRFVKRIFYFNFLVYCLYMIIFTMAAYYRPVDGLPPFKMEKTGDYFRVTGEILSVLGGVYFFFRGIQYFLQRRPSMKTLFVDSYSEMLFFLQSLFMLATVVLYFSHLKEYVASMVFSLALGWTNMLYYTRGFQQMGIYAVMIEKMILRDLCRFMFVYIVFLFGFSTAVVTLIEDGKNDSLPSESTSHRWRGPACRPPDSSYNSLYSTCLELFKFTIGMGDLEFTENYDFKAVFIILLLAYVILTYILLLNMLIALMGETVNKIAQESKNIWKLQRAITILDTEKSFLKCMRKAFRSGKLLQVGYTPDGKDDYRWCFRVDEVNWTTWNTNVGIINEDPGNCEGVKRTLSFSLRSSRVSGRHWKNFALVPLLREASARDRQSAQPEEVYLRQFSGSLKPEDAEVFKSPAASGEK
PROTOCOL DETAILS: FLIPR Ca2+ influx assay on CHO-K1 cells transfected with the human VR1 gene, capsaicin stimulus (Pharmacological Method II)
Scale: pKi equals -log10([C]), with [C] in mol/L.

Supply reported pKi belonging to this compound: CC1CCN(c2nc(C(F)(F)F)ccc2CNC(=O)C(C)c2cc(O)c([N+](=O)[O-])c(F)c2)CC1 (centres unmarked) [Example 27]
8.10

Supply reported pKi belonging to this compound: CC(=O)Nc1ccc(C(C)C(=O)NCc2ccc(C(F)(F)F)nc2N2CCC(C)CC2)cc1F (centres unmarked) [Example 18]
7.60

Supply reported pKi belonging to this compound: CC1CCN(c2nc(C(F)(F)F)ccc2CNC(=O)Cc2cc(Br)c(N)c(Br)c2)CC1 [Example 22]
9.15

Supply reported pKi belonging to this compound: COc1cc(CC(=O)NCc2ccc(C(F)(F)F)nc2N2CCC(C)CC2)cc(Br)c1N [Example 3]
8.36

Supply reported pKi belonging to this compound: COc1cc(CC(=O)NCc2ccc(C(F)(F)F)nc2N2CCC(C)CC2)cc(Br)c1O [Example 21]
10.00

Supply reported pKi belonging to this compound: C=CC(=O)Nc1c(F)cc(C(C)C(=O)NCc2ccc(C(F)(F)F)nc2N2CCC(C)CC2)cc1I (centres unmarked) [Example 34]
8.32

Supply reported pKi belonging to this compound: CC1CCN(c2nc(C(F)(F)F)ccc2CNC(=O)C(C)c2cc(Br)c(N)c(Br)c2)CC1 (centres unmarked) [Example 20]
9.05

Supply reported pKi belonging to this compound: CC1CCN(c2nc(C(F)(F)F)ccc2CNC(=O)Cc2cccc(F)c2)CC1 [Example 4]
7.47
